Origin of values: patent US20110092526A1

target: human 11βHSD1 enzyme (Homo sapiens); construct: N terminal 6-His tagged full length human 11βHSD1 enzyme; 6-His (N); assay: 11βHSD1 competitive HTRF assay (conversion of cortisone to cortisol); conditions: recombinant N terminal 6-His tagged full length human 11βHSD1; cortisone 160 nM; 25 minutes at 37° C.; pH 7.5
Sequence (P28845 whole entry): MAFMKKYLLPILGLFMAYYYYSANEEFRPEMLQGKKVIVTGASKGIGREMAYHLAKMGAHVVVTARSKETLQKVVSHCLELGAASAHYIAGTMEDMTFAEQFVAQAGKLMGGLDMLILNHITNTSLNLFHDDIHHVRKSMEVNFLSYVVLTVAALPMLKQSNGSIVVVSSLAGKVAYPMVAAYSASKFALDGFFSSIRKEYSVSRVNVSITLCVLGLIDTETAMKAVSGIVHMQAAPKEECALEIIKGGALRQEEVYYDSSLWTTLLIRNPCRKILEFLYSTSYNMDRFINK
Overview of reported IC50 across a group of compounds:
Value expressed in nM; do not type the unit.

# annotated cases, reported IC50 shown
compound	unitSymbol	assayValue
O=C(N[C@H]1C2CC3CC1C[C@@](O)(C3)C2)c1cnc(NC2CCS(=O)(=O)C2)nc1C1CCCC1 (stereo partly shown)	nM	24
CN1CC(Nc2ncc(C(=O)N[C@H]3C4CC5CC3C[C@@](O)(C5)C4)c(C3CCCC3)n2)CC1=O (stereo partly shown)	nM	20
CCOc1nc(N[C@@H]2CCOC2)ncc1C(=O)N[C@H]1C2CC3CC1C[C@@](O)(C3)C2	nM	45

Summary: "O=C(N[C@H]1C2CC3CC1C[C@@](O)(C3)C2)c1cnc(N[C@@H]2CCOC2)nc1C(F)(F)F" , human 11βHSD1 enzyme (Homo sapiens), IC50 = 25

Summary: CCCOc1nc(N[C@@H]2CCOC2)ncc1C(=O)NC1C2CC3CC1CC(O)(C3)C2 (stereo partly shown) , human 11βHSD1 enzyme (Homo sapiens), IC50 = 19

Summary: CCN1CC(Nc2ncc(C(=O)N[C@H]3C4CC5CC3C[C@@](O)(C5)C4)c(C3CCCC3)n2)CC1=O (stereo partly shown) , human 11βHSD1 enzyme (Homo sapiens), IC50 = 15

Summary: "CN(C(=O)c1cnc(N[C@@H]2CCOC2)nc1C1CCCC1)[C@H]1C2CC3CC1C[C@@](O)(C3)C2" , human 11βHSD1 enzyme (Homo sapiens), IC50 = 46

Summary: "O=C(N[C@H]1C2CC3CC1C[C@@](C(=O)O)(C3)C2)c1cnc(N[C@H]2CCOC2)nc1C1CCCC1" , human 11βHSD1 enzyme (Homo sapiens), IC50 = 424

Summary: "O=C(N[C@H]1C2CC3CC1C[C@@](O)(C3)C2)c1cnc(N[C@H]2CCOC2)nc1N1CCCC1" , human 11βHSD1 enzyme (Homo sapiens), IC50 = 1600

Summary: "CN1C(=O)CC[C@@H]1CNc1ncc(C(=O)N[C@H]2C3CC4CC2C[C@@](O)(C4)C3)c(C2CCCC2)n1" , human 11βHSD1 enzyme (Homo sapiens), IC50 = 23

---

Overview of reported pIC50 across a group of molecules:
Biological target: human 11βHSD1 enzyme (Homo sapiens)
Construct: N terminal 6-His tagged full length human 11βHSD1 enzyme; 6-His (N)
Assay: 11βHSD1 competitive HTRF assay (conversion of cortisone to cortisol)
Settings: recombinant N terminal 6-His tagged full length human 11βHSD1; cortisone 160 nM; 25 minutes at 37° C.; pH 7.5
Protocol: The evaluation of compounds described herein was carried out using a baculovirus expressed N terminal 6-His tagged full length human 11βHSD1 enzyme (*1). The enzyme was purified from a detergent solublised cell lysate, using a copper chelate column. Inhibitors of 11βHSD1 reduce the conversion of cortisone to cortisol, which is identified by an increase in signal, in the above assay. […]
// field semantics: pIC50 = negative decimal log of concentration (mol/L)

# annotated cases, reported pIC50 shown
compoundSmiles	pIC50
O=C(N[C@H]1C2CC3CC1C[C@@](O)(C3)C2)c1cnc(N[C@H]2CCOC2)nc1-n1cccn1	5.64
O=C(N[C@H]1C2CC3CC1C[C@@](O)(C3)C2)c1cnc(N[C@@H]2CCOC2)nc1N1CCCC1	6.11
CS(=O)(=O)[C@]12CC3CC(C1)[C@H](NC(=O)c1cnc(N[C@H]4CCOC4)nc1C1CCCC1)C(C3)C2	6.56

Reported pIC50 ( "O=C(N[C@H]1C2CC3CC1C[C@@](O)(C3)C2)c1cnc(N[C@@H]2CCOC2)nc1-n1cccn1" ) = 6.15

---

target: human 11βHSD1 enzyme (Homo sapiens); construct: N terminal 6-His tagged full length human 11βHSD1 enzyme; 6-His (N); assay: 11βHSD1 competitive HTRF assay (conversion of cortisone to cortisol); conditions: recombinant N terminal 6-His tagged full length human 11βHSD1; cortisone 160 nM; 25 minutes at 37° C.; pH 7.5
assayReadout: IC50 (nM)
Value expressed in nM; do not type the unit.

compoundSmiles	assayReadout	unitSymbol	assayValue
CC(C)c1nc(N[C@H]2CCOC2)ncc1C(=O)N[C@H]1C2CC3CC1C[C@@](O)(C3)C2	IC50	nM	46
NC(=O)[C@]12CC3CC(C1)[C@H](NC(=O)c1cnc(N[C@H]4CCOC4)nc1C1CCCC1)C(C3)C2	IC50	nM	17
O=C(N[C@H]1C2CC3CC1C[C@@](O)(C3)C2)c1cnc(N[C@H]2CCOC2)nc1C(F)(F)F	IC50	nM	95
CCOc1nc(N[C@H]2CCOC2)ncc1C(=O)N[C@H]1C2CC3CC1C[C@@](O)(C3)C2	IC50	nM	37
CN(C(=O)c1cnc(N[C@H]2CCOC2)nc1C1CCCC1)[C@H]1C2CC3CC1C[C@@](O)(C3)C2	IC50	nM	32
CCCOc1nc(N[C@H]2CCOC2)ncc1C(=O)N[C@H]1C2CC3CC1C[C@@](O)(C3)C2	IC50	nM	21

Reported IC50 ( "CC(C)c1nc(N[C@@H]2CCOC2)ncc1C(=O)N[C@H]1C2CC3CC1C[C@@](O)(C3)C2" ) = 42
